- Test system: XBP1(u)-luciferase splicing reporter in HepG2 hepatoma cells
- ASSAY PROCEDURE: HepG2 XBP1 reporter assay (XBP1(u)-Luc)
- Format: cell-based
- CONDITION DESCRIPTION: Homo sapiens, 6 h, six hours after addition of compound
Each entry below carries its recorded IC50.
METRIC NAME: IC50

MOLECULE	RECORDED MEASUREMENT
Cc1cc(N2CCCOC[C@H]2c2ccc(N)cc2Cl)nc(N)n1 [D-29]	< 0.6 µM
Cc1cc(N2CCCOC[C@@H]2c2cc(O)c(C(=O)NC(C)C)cc2Cl)nc(N)n1 [D-123]	2 to 5 µM
Cc1cc(N2CCCOCC2c2ccc(NC(=O)CC3CC3)cc2Cl)nc(N)n1 [D-94]	2 to 5 µM
Cc1cc(N2CCCOCC2c2ccc(Br)cc2OC(F)(F)F)nc(N)n1 [D-140]	≥ 5 µM
Cc1cc(N2CCCOC[C@@H]2c2ccc(N3CCN(C(=O)OC(C)(C)C)CC3)cc2Cl)nc(N)n1 [D-82]	0.6 to 2 µM

Value source: patent US11440907B1
